- assay-details: Half life in rhesus at 1 mg/kg, iv or 1 mg/kg, po
- Assay type: ADME, organism-based, Macaca mulatta
- experimental-setup: rhesus monkey, in vivo
measured-endpoint: half-life (h)
Answer format: numeric, h implied, no suffix.

[Q] Entry CC(C)(O)c1cnn2c(-c3ccc(F)c(-c4c(F)cccc4C#N)c3)cnc2n1 has what half-life?
[A] 4.9

----------
In this section we review reported Efficacy values for a set of compounds.
- test-system: GABA-A receptor; alpha-1/beta-3/gamma-2 (Homo sapiens) (UniProt P14867+P18507+P28472)
- assay-details: Efficacy against recombinant human GABAA alpha1 receptor plus beta3gamma2 expressed in L(tk-) cells by whole cell patch clamp method relative to chlordiazepoxide
- Format: functional, cell-based
Answer format: numeric, % implied, no suffix.

Solved entries:
>>> quantitative_readout("CCO/N=C(\\C)c1ccc2c(c1)ncn2-c1cccc(-c2cccnc2)c1")
40
>>> quantitative_readout("CN1C(=O)CN=C(c2ccccc2)c2cc(Cl)ccc21")
93
>>> quantitative_readout("CC(C)(O)c1cnn2c(-c3ccc(F)c(-c4c(F)cc(F)cc4C#N)c3)cnc2n1")
0

[Q] Checklist item: Efficacy tested on GABA-A receptor; alpha-1/beta-3/gamma-2 (Homo sapiens) (UniProt P14867+P18507+P28472), entry CC(C)(O)c1cnn2c(-c3ccc(F)c(-c4c(F)cccc4C#N)c3)cnc2n1 , value?
[A] 3

[Q] Same question for Cc1ccn2c(-c3cccc(-c4ccccc4C#N)c3)cnc2n1 please.
[A] 7

[Q] Same question for CC(C)(O)c1ccn2c(-c3ccc(F)c(-c4cccnc4)c3)cnc2n1 please.
[A] 6

[Q] Same question for N#Cc1cc(F)ccc1-c1cc(-c2cnc3nc(C(F)(F)F)ccn23)ccc1F please.
[A] -3

----------
- test-system: GABA-A receptor; alpha-1/beta-3/gamma-2 (Homo sapiens) (UniProt P14867+P18507+P28472)
- assay-details: Efficacy against recombinant human GABAA alpha-1 receptor plus beta3gamma2 expressed in L(tk-) cells by whole cell patch clamp method
- Assay type: functional, cell-based
In this section we review reported Efficacy values for a set of compounds.
Reply with the number and its unit after it.

>>> result("N#Cc1cc(F)ccc1-c1cc(-c2cnc3nc(C(F)(F)F)cnn23)ccc1F")
"-13%"

[Q] Entry CC(C)(O)c1cnn2c(-c3ccc(F)c(-c4ccc(F)cc4C#N)c3)cnc2n1 has what Efficacy?
[A] -15%

[Q] Same question for Cc1ccn2c(-c3cccc(-c4ccccc4C#N)c3)cnc2c1 please.
[A] -10%

[Q] Same question for Cc1cnn2c(-c3cccc(-c4ccccc4C#N)c3)cnc2n1 please.
[A] -21%

----------
In this section we review reported Vd values for a set of compounds.
- assay-details: Volume of distribution in rat at 1 mg/kg, iv or 1 mg/kg, po
- Assay type: ADME, organism-based
- experimental-setup: in vivo, read-out: Vdss
Answer format: numeric, L/kg implied, no suffix.

Solved entries:
>>> quantitative_readout("CC(C)(O)c1cnn2c(-c3ccc(F)c(-c4c(F)cc(F)cc4C#N)c3)cnc2n1")
5.8
>>> quantitative_readout("CC(C)(O)c1cnn2c(-c3ccc(F)c(-c4ccc(F)cc4C#N)c3)cnc2n1")
3.4

Proceeding to the next compound to report its Vd.
[Q] Entry CC(C)(O)c1cnn2c(-c3ccc(F)c(-c4c(F)cccc4C#N)c3)cnc2n1 has what Vd?
[A] 2.1

----------
- assay-details: Volume of distribution in dog at 1 mg/kg, iv or 1 mg/kg, po
- Assay type: ADME, organism-based, Canis lupus familiaris
- experimental-setup: in vivo, read-out: Vdss
measured-endpoint: Vd
Reply with the number and its unit after it.

[Q] Entry CC(C)(O)c1cnn2c(-c3ccc(F)c(-c4c(F)cccc4C#N)c3)cnc2n1 has what Vd?
[A] 1.9 L/kg

----------
- test-system: GABA-A receptor; alpha-3/beta-3/gamma-2 (Homo sapiens, UniProt P18507+P28472+P34903)
- assay-details: Displacement of [3H]Ro 15-1788 from recombinant human GABAA alpha3 receptor plus beta-3-gamma-2 expressed in L(tk-) cells
measured-endpoint: Ki (nM)
Answer format: numeric, nM implied, no suffix.

[Q] Entry CC(C)(O)c1cnn2c(-c3ccc(F)c(-c4c(F)cccc4C#N)c3)cnc2n1 has what Ki?
[A] 2

----------
- test-system: GABA-A receptor; alpha-5/beta-3/gamma-2 (Homo sapiens, UniProt P18507+P28472+P31644)
- assay-details: Displacement of [3H] Ro15-1788 from recombinant human GABAA alpha-5 receptor plus beta3gamma2 expressed in L(tk-) cells
measured-endpoint: Ki (nM)
Answer format: numeric, nM implied, no suffix.

[Q] Entry CC(C)(O)c1cnn2c(-c3ccc(F)c(-c4c(F)cccc4C#N)c3)cnc2n1 has what Ki?
[A] 1.1

----------
- test-system: GABA-A receptor; alpha-1/beta-3/gamma-2 (Homo sapiens, UniProt P14867+P18507+P28472)
- Sequence (P14867 whole entry, one chain of several): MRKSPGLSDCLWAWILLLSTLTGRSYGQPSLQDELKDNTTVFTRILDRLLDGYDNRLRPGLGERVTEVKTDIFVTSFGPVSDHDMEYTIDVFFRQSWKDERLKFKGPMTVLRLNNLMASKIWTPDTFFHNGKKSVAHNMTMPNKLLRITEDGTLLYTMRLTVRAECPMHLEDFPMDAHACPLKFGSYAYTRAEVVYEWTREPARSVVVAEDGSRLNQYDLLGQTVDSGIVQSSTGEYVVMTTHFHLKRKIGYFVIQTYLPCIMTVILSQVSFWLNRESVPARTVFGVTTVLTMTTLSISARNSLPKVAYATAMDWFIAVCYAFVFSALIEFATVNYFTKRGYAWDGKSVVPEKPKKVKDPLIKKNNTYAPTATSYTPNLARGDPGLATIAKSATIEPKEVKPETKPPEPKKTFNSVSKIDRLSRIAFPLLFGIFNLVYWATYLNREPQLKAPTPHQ
- assay-details: Displacement of [3H]Ro 15-1788 from recombinant human GABAA alpha-1 receptor plus beta3gamma2 expressed in L(tk-) cells
In this section we review reported pKi values for a set of compounds.
Keep in mind that pKi stands for -log10 of concentration in molar terms.

Solved entries:
>>> quantitative_readout("N#Cc1cc(F)ccc1-c1cc(-c2cnc3nc(C(F)(F)F)cnn23)ccc1F")
9.60
>>> quantitative_readout("Cc1ccn2c(-c3cccc(-c4ccccc4C#N)c3)cnc2n1")
9.40
>>> quantitative_readout("Cc1cnn2c(-c3cccc(-c4ccccc4C#N)c3)cnc2n1")
8.82
>>> quantitative_readout("CCO/N=C(\\C)c1ccc2c(c1)ncn2-c1cccc(-c2cccnc2)c1")
8.70

[Q] Entry Cc1cnn2c(-c3cccc(-c4ccccc4C#N)c3)cnc2c1 has what pKi?
[A] 7.89

[Q] Same question for CC(C)(O)c1cnn2c(-c3ccc(F)c(-c4c(F)cccc4C#N)c3)cnc2n1 please.
[A] 9.14

[Q] Same question for CC(C)(O)c1cnn2c(-c3ccc(F)c(-c4c(F)cc(F)cc4C#N)c3)cnc2n1 please.
[A] 9.82

[Q] Same question for CC(C)(O)c1cnn2c(-c3ccc(F)c(-c4ccc(F)cc4C#N)c3)cnc2n1 please.
[A] 8.92

----------
- test-system: GABA-A receptor; alpha-2/beta-3/gamma-2 (Homo sapiens, UniProt P18507+P28472+P47869)
- Sequence (P18507 whole entry): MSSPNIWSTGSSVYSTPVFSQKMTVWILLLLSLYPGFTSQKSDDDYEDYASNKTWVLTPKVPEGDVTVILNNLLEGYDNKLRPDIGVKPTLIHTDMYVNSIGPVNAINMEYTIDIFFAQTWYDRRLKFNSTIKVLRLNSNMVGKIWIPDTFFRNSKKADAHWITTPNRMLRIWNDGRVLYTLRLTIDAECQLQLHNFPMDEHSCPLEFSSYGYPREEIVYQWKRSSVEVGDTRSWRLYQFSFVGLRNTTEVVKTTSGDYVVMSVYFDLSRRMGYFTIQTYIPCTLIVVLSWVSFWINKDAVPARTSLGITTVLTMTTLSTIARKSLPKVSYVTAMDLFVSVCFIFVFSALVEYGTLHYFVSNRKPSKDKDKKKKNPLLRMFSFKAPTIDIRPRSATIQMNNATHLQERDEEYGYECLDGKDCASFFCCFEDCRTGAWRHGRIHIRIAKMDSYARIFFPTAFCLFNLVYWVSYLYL
- Sequence (P28472 whole entry): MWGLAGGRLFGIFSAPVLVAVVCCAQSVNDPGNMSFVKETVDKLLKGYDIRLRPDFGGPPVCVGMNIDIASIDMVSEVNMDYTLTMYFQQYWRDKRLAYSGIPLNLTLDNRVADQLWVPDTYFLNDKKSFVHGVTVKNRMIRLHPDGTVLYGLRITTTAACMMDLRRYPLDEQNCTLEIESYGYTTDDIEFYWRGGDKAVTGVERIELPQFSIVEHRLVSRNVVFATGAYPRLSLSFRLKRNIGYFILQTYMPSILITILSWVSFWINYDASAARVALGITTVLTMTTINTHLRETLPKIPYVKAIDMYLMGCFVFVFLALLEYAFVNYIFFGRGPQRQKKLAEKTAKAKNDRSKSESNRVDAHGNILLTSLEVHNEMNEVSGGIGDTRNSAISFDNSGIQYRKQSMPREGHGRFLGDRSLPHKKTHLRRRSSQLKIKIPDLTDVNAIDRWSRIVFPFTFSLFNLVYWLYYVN
- Sequence (P47869 whole entry): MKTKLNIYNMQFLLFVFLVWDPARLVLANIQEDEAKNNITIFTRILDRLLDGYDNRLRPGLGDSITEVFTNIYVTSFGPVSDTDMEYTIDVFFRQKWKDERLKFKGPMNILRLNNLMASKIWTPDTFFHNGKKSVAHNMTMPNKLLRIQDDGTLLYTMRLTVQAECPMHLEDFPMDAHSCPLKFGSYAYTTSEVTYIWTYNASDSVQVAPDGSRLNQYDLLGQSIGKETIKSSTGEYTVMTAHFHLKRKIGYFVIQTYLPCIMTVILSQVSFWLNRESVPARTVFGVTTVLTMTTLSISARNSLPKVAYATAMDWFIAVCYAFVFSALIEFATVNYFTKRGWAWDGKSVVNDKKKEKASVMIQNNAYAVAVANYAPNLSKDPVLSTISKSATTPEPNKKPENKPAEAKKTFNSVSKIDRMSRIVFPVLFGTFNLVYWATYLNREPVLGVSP
- assay-details: Displacement of [3H] Ro15-1788 from recombinant human GABAA alpha2 receptor plus beta-3-gamma-2 expressed in L(tk-) cells
measured-endpoint: pKi
Keep in mind that pKi stands for -log10 of concentration in molar terms.

[Q] Checklist item: pKi tested on GABA-A receptor; alpha-2/beta-3/gamma-2 (Homo sapiens, UniProt P18507+P28472+P47869), entry CC(C)(O)c1ccn2c(-c3ccc(F)c(-c4cccnc4)c3)cnc2n1 , value?
[A] 8.40

[Q] Same question for Cc1ccn2c(-c3cccc(-c4ccccc4C#N)c3)cnc2n1 please.
[A] 9.40

[Q] Same question for CC(C)(O)c1cnn2c(-c3ccc(F)c(-c4c(F)cccc4C#N)c3)cnc2n1 please.
[A] 8.74

[Q] Same question for Cc1cnn2c(-c3cccc(-c4ccccc4C#N)c3)cnc2n1 please.
[A] 8.92

[Q] Same question for N#Cc1cc(F)ccc1-c1cc(-c2cnc3nc(C(F)(F)F)cnn23)ccc1F please.
[A] 9.10

[Q] Same question for CC(C)(O)c1cnn2c(-c3ccc(F)c(-c4ccc(F)cc4C#N)c3)cnc2n1 please.
[A] 8.68

[Q] Same question for CCO/N=C(\C)c1ccc2c(c1)ncn2-c1cccc(-c2cccnc2)c1 please.
[A] 7.85
